Data origin: the supplement of paper PMC10065799

biological target: Jak2 (UniProt O60674); test: phosphorylation enrichment, bacterial display (enrichment ratio); higher = better substrate or ligand; peptides without Tyr show the background;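 further: 11-residue human phosphosite peptides and single-mutation variants displayed on the E. coli surface, counted by deep sequencing, each peptide's frequency after selection divided by its frequency in the unselected input library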;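 further: frequency after pTyr selection over input frequency; kinase dosed for 20-30% of maximal phosphorylation in three min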
Sequence (O60674 whole entry, looked up): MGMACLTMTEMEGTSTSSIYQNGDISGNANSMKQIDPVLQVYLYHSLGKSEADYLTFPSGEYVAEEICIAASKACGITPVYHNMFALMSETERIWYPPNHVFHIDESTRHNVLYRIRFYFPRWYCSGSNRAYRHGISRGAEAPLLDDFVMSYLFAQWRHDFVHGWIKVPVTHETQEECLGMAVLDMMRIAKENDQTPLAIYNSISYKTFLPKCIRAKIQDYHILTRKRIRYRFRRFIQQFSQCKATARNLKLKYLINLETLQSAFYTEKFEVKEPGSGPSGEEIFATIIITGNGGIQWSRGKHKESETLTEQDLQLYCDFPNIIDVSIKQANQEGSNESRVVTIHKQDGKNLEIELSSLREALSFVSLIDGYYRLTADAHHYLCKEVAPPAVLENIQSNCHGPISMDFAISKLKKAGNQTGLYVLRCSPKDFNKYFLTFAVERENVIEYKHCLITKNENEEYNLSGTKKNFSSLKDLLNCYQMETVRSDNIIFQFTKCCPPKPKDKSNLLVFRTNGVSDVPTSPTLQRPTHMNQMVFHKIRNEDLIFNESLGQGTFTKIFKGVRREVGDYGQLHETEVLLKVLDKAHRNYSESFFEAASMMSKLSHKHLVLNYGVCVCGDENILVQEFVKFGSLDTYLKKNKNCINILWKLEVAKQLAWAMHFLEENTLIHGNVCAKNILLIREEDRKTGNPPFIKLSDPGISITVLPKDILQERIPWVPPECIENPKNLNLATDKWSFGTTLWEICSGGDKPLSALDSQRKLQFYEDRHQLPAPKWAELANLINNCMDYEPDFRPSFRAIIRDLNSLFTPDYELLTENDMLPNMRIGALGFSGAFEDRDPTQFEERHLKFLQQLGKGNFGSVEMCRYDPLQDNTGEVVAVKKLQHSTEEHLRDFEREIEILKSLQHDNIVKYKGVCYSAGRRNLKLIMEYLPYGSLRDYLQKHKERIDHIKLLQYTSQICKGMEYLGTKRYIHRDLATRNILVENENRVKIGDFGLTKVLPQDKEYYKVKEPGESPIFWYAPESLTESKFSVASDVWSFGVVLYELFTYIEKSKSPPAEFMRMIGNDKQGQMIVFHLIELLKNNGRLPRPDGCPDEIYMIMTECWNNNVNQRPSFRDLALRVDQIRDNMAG
Class boundaries, taken from values of phosphorylation enrichment, are as follows: bottom end = under 0.7, midrange = from 0.7 up to 1, top end = 1 and over

These solved cases illustrate the format of a correct answer.
> print(dat)
                 sequence.string  assigned.category
1    FCRIMYDIFPF [INTS13_Y67_YF]            top end
2       WEPFGYAVTRC [PTPRT_Y412]           midrange
3  LTYHMYADPNI [SOS1_Y618_F623I]            top end
4      DERQPYAHMNG [IGF1R_Y1346]         bottom end

Input: Returns: class label. Input: DEWFLYKMRDI [CPS1_Y879_K875E]
Output: top end

Input: Pick a category. Item: PMFTKYGNSLL [RPGRIP1L_Y196]
Output: top end

Input: Category lookup for the sequence RGESFYQDTMN [RARS_Y338_R341T]
Output: midrange

Input: // return the class label for MKKKTYAMGGG [GAN_Y424_I423T]
Output: midrange

Input: Returns: class label. Input: ADDSYYTVRSA [ZAP70_Y493_A495V]
Output: top end

Input: Band for NVKGIYAVGDV [GSR_Y371] ?
Output: bottom end

Input: For TGQEEYSAMRD [KRAS_Y64_A59T] , which phosphorylation enrichment bin applies?
Output: midrange

Input: Exercise: read the entry GIATGYLVLKE [DNMT3B_Y588] and state which class it falls under.
Output: midrange

Input: Consider QDTSRYTVCNL [BIRC3_Y245_S248C] . To which phosphorylation enrichment class does it belong?
Output: midrange

Input: Hey, which category is AIYRRYSKFFD [SH3PXD2B_Y45] in, do you know?
Output: midrange

Input: Assign a category based on measured phosphorylation enrichment for YGAHNYHPLPV [OAT_Y55] and give only the class name.
Output: bottom end
